Test: Acid dissociation constant pKa of flux agent
Conditions: dilute aqueous solution
test.readout: pKa
Reply with the value as a number alone.

[ask] Quick check: pKa of O=C(O)C1CCCCC1C(=O)O (stereo not shown) ?
[reply] 4.4

[ask] Now consider O=C(O)c1c(O)cccc1O [2,6-dihydroxybenzoic acid] .
[reply] 1.2

[ask] Now consider CN(C)c1ccc(C(=O)O)cc1 [p-dimethylaminobenzoic acid] .
[reply] 4.9

[ask] Now consider O=C(O)CCCCCCCCCCC(=O)O [Dodecanedioic acid, dodecanedioic acid] .
[reply] 5

[ask] Now consider O=C(O)c1ccccc1[N+](=O)[O-] [2-nitrobenzoic acid] .
[reply] 2.5

[ask] Now consider O=C(O)CCCCCCC(=O)O [Octanedioic acid, octanedioic acid] .
[reply] 4.5

[ask] Now consider O=C(O)c1ccccc1-c1ccccc1 [2-phenylbenzoic acid] .
[reply] 3.5
